species on record: Sus scrofa; assay: Calcium antagonistic activity was evaluated from the inhibition of CaCl2-induced contraction of depolarized pig coronary artery; type: functional
Measured Attribute: IC50 (nM)

P. COC(=O)C1=C(C)NC(C)=C(C(=O)OCCN(C)C[C@H]2COc3ccccc3O2)[C@@H]1c1cccc([N+](=O)[O-])c1.Cl (stereo in doubt; 6b)
Q. COC(=O)C1=C(C)NC(C)=C(C(=O)OCCN(C)C[C@H]2COc3ccccc3O2)[C@@H]1c1cccc([N+](=O)[O-])c1.Cl (stereo in doubt; 6a)
In: Please indicate which entry, P or Q , has the lower recorded IC50 value. Indicate your choice by writing its label.
Out: Q
(Q: 1.5 nM, P: 10 nM)

Values compiled from ChEMBL document CHEMBL1124620.
